Below is a list of entries, each paired with its recorded pIC50 value.
# Target system: cellular PARG (Homo sapiens, UniProt Q86W56)
# Construct: endogenous in cells
# Sequence (Q86W56 whole entry): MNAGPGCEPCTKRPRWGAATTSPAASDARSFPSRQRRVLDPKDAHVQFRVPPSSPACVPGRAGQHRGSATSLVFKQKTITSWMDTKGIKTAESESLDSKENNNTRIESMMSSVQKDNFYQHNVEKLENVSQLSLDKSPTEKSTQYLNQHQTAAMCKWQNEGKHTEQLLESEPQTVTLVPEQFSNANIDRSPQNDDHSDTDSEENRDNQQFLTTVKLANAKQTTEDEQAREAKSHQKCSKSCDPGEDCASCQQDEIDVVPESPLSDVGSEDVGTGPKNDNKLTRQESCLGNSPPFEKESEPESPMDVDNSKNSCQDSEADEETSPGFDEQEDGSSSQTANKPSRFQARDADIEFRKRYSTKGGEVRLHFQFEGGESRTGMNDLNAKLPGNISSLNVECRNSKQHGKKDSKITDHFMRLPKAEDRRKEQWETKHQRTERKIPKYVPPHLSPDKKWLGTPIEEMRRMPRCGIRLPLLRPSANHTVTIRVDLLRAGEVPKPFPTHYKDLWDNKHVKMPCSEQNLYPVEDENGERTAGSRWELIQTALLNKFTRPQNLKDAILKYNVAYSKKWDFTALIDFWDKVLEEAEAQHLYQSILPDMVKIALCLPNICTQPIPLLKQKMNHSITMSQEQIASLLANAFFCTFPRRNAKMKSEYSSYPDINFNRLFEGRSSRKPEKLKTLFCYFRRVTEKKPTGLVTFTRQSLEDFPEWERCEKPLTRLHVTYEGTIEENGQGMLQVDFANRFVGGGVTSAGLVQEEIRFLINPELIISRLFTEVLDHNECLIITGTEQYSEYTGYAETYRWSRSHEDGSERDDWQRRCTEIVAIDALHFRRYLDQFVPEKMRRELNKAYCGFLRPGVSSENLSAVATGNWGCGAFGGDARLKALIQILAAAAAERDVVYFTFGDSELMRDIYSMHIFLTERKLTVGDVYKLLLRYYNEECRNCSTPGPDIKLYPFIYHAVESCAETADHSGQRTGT
# Experiment description: Nuclear PAR accumulation assay (immunofluorescence high-content imaging, MMS-treated HeLa cells)
# Details: 1 hour compound then MMS 50 μg/mL for an additional hour
pIC50: −log10 of the molar value.

Solved cases below.
>>> df
                                 mol_smiles                             target_system  value_measured
0  [2H]C([2H])(c1cnn(C)c1)N1C(=O)c2cc(S(=O)(=O)NC3(C)CC3)ccc2N2C1=NC[C@H]2C#Cc1cncc(OC)c1  cellular PARG (Homo sapiens, UniProt Q86W56)          > 7.00
1  C[C@@H]1CN(c2cc(S(=O)(=O)NC3(C)CC3)cc3c2N2C(=NC[C@H]2C)N(C)C3=O)C[C@@H](C)O1  cellular PARG (Homo sapiens, UniProt Q86W56)    6.00 to 7.00
2  CCN1C(=O)c2cc(S(=O)(=O)NC3(C)CC3)ccc2N2C1=NC[C@H]2C#Cc1cc(C2CC2)nn1C  cellular PARG (Homo sapiens, UniProt Q86W56)          > 7.00

Next up:
Q) Identify pIC50 associated with the molecule `CCN1C(=O)c2cc(S(=O)(=O)NC3(C)CC3)ccc2N2C1=NC[C@H]2C#Cc1cnc2cc(C#N)cnn12`
A) > 7.00

* * *

# Target system: cellular PARG (Homo sapiens)
# Construct: endogenous in cells
# Experiment description: Nuclear PAR accumulation assay (immunofluorescence high-content imaging, MMS-treated HeLa cells)
# Details: 1 hour compound then MMS 50 μg/mL for an additional hour
pIC50: −log10 of the molar value.
Below is a list of entries, each paired with its recorded pIC50 value.

>>> print(df.to_string())
                                   compound  measured_property  value_measured
0  C[C@@H]1CN=C2N(CC#Cc3ccc(F)nc3)C(=O)c3cc(S(=O)(=O)NC4(C)CC4)ccc3N21 [Example 278]              pIC50    6.00 to 7.00
1  Cn1cc(CN2C(=O)c3cc(S(=O)(=O)NC4(C)CC4)ccc3N3C2=NC[C@H]3C#Cc2ncn(C)n2)cn1 [Example 66]              pIC50          > 7.00
2  Cn1cc(CN2C(=O)c3cc(S(=O)(=O)NC4(C)CC4)ccc3N3C2=NC[C@H]3CC(F)(F)F)cn1 [Example 39]              pIC50          > 7.00

Next up:
Q) Identify pIC50 associated with the compound Cn1cc(CN2C(=O)c3cc(S(=O)(=O)NC4(C)CC4)ccc3N3C2=NCC3COc2cccc(C#N)c2)cn1 (stereo not shown) [Example 136]
A) > 7.00

* * *

# Target system: cellular PARG (Homo sapiens, UniProt Q86W56)
# Construct: endogenous in cells; host or cells: HeLa
# Experiment description: Nuclear PAR accumulation assay (immunofluorescence high-content imaging, MMS-treated HeLa cells)
# Type: cell-based
# Details: 1 hour compound then MMS 50 μg/mL for an additional hour
Below is a list of entries, each paired with its recorded IC50 value.

>>> df
                                 mol_smiles                             target_system  value_measured
0  CCN1C(=O)c2cc(S(=O)(=O)NC3(C)CC3)ccc2N2C1=NC[C@H]2C#Cc1cnc2cccnn12  cellular PARG (Homo sapiens, UniProt Q86W56)        < 100 nM
1  C[C@@H]1CN=C2N(Cc3cnn(C)c3)C(=O)c3cc(S(=O)(=O)NC4(C)CC4)cc(C4=CCNCC4)c3N21  cellular PARG (Homo sapiens, UniProt Q86W56)  100 to 1000 nM
2  Cc1ccc2ncc(C#C[C@@H]3CN=C4N(C)C(=O)c5cc(S(=O)(=O)NC6(C)CC6)ccc5N43)n2n1  cellular PARG (Homo sapiens, UniProt Q86W56)        < 100 nM
3  CC(C)OC[C@@H]1CN=C2N(Cc3cnn(C)c3)C(=O)c3cc(S(=O)(=O)NC4(C)CC4)ccc3N21  cellular PARG (Homo sapiens, UniProt Q86W56)        < 100 nM
4  Cn1cc(CN2C(=O)c3cc(S(=O)(=O)NC4(C)CC4)ccc3N3C2=NC[C@H]3C#CCN2CCCC2)cn1  cellular PARG (Homo sapiens, UniProt Q86W56)        < 100 nM

Q) Identify IC50 associated with the compound `Cn1cc(CN2C(=O)c3cc(S(=O)(=O)NC4(C)CC4)ccc3N3C2=NC[C@H]3C#Cc2ccnn2C(F)F)cn1`
A) < 100 nM

* * *

# Target system: cellular PARG (Homo sapiens, UniProt Q86W56)
# Construct: endogenous in cells
# Experiment description: Nuclear PAR accumulation assay (immunofluorescence high-content imaging, MMS-treated HeLa cells)
# Details: 1 hour compound then MMS 50 μg/mL for an additional hour
pIC50: −log10 of the molar value.
Below is a list of entries, each paired with its recorded pIC50 value.

Solved cases below.
                                   molecule                             target_system  value_measured
0  Cc1cc(F)ccc1-c1cc(S(=O)(=O)NC2(C)CC2)cc2c1N1CC(C)(C)N=C1N(Cc1cnn(C)c1)C2=O  cellular PARG (Homo sapiens, UniProt Q86W56)          > 7.00
1  [2H]C([2H])(c1cnn(C)c1)N1C(=O)c2cc(S(=O)(=O)NC3(C)CC3)ccc2N2C1=NC[C@H]2C#Cc1ccc(N(C)C)nc1  cellular PARG (Homo sapiens, UniProt Q86W56)          > 7.00
2  [2H]C([2H])(c1cnn(C)c1)N1C(=O)c2cc(S(=O)(=O)NC3(C)CC3)ccc2N2C1=NC[C@H]2C#CCC(C)C  cellular PARG (Homo sapiens, UniProt Q86W56)          > 7.00
3  C[C@@H]1CN=C2N(Cc3cn(C)nc3C(F)(F)F)C(=O)c3cc(S(=O)(=O)NC4(C)CC4)cc(Br)c3N21  cellular PARG (Homo sapiens, UniProt Q86W56)          > 7.00
4  C[C@@H]1CN=C2N(Cc3ccc(C#N)nc3)C(=O)c3cc(S(=O)(=O)NC4(C)CC4)ccc3N21  cellular PARG (Homo sapiens, UniProt Q86W56)          > 7.00
5  CN1C(=O)c2cc(S(=O)(=O)NC3(C)CC3)cc(Br)c2N2C1=NC[C@H]2C#CC1CC1  cellular PARG (Homo sapiens, UniProt Q86W56)          > 7.00
6  CC1(NS(=O)(=O)c2ccc3c(c2)C(=O)N(Cc2cnn4c2CNCC4)C2=N[C@H]4CCC[C@H]4N23)CC1  cellular PARG (Homo sapiens, UniProt Q86W56)    6.00 to 7.00
7  [2H]C([2H])(c1cnn(C)c1)N1C(=O)c2cc(S(=O)(=O)NC3(C)CC3)cc(Cl)c2N2C1=NC[C@H]2C#C  cellular PARG (Homo sapiens, UniProt Q86W56)          > 7.00
8  CN1C(=O)c2cc(S(=O)(=O)NC3(C)CC3)ccc2N2C1=NCC2C#Cc1cnc2ccccn12 (centres unmarked)  cellular PARG (Homo sapiens, UniProt Q86W56)          > 7.00
9  CN1CCC([C@@H]2CN=C3N(Cc4cnn(C)c4)C(=O)c4cc(S(=O)(=O)NC5(C)CC5)ccc4N32)CC1  cellular PARG (Homo sapiens, UniProt Q86W56)    5.00 to 6.00

Q) Identify pIC50 associated with the molecule `Cn1cc(CN2C(=O)c3cc(S(=O)(=O)NC4(C)CC4)ccc3N3C2=NC[C@H]3C2CCC2)cn1`
A) > 7.00

Q) Identify pIC50 associated with the molecule `[2H]C([2H])(c1cnn(C)c1)N1C(=O)c2cc(S(=O)(=O)NC3(C)CC3)ccc2N2C1=NC[C@H]2C#Cc1cncc(N)c1`
A) > 7.00

Q) Identify pIC50 associated with the molecule `CN(C)CC#C[C@@H]1CN=C2N(Cc3cnn(C)c3)C(=O)c3cc(S(=O)(=O)NC4(C)CC4)ccc3N21`
A) > 7.00

Q) Identify pIC50 associated with the molecule `C[C@@H]1CN=C2N(Cc3cnn(C)c3)C(=O)c3cc(S(=O)(=O)NC4(C)CC4)cc(N4CCC4)c3N21`
A) > 7.00

* * *

# Target system: cellular PARG (Homo sapiens, UniProt Q86W56)
# Construct: endogenous in cells
# Experiment description: Nuclear PAR accumulation assay (immunofluorescence high-content imaging, MMS-treated HeLa cells)
# Details: 1 hour compound then MMS 50 μg/mL for an additional hour
# Description: HeLa cells were plated at 15,000 cells/well in a 96-well plate the day before compound treatment and then treated with varying concentrations of test compound and incubated for 1 hour at 37° C.+5% CO2. […] Nuclear PAR accumulation was evaluated using high-content fluorescence microscopy. Four fields for each well were acquired at 20× magnification resulting in at least 1,000 cells analyzed per well. […] Both the average intensity per nucleus and percent PAR positive cells were quantified. […]
Measured property: IC50

In [3]: df
Out[3]:
                                   molecule                             target_system  value_measured
0  [2H]C([2H])(c1cnn(C)c1)N1C(=O)c2cc(S(=O)(=O)NC3(C)CC3)ccc2N2C1=NC[C@H]2C#Cc1cn(C)nc1C [Example 232]  cellular PARG (Homo sapiens, UniProt Q86W56)        < 100 nM
1  C[C@@H]1CN=C2N(Cc3cn(C)nc3C(F)F)C(=O)c3cc(S(=O)(=O)NC4(C)CC4)ccc3N21 [Example 24]  cellular PARG (Homo sapiens, UniProt Q86W56)        < 100 nM
2  CN1C(=O)c2cc(S(=O)(=O)NC3(C)CC3)ccc2N2C1=NC[C@H]2C#Cc1c2ccccc2nn1C [Example 174]  cellular PARG (Homo sapiens, UniProt Q86W56)        < 100 nM
3  C[C@@H]1CN=C2N(Cc3cnn4c3CNCC4)C(=O)c3cc(S(=O)(=O)NC4(C)CC4)ccc3N21 [Example 177]  cellular PARG (Homo sapiens, UniProt Q86W56)  100 to 1000 nM
4  C[C@@H]1CN=C2N(Cc3cnn(C)c3)C(=O)c3cc(S(=O)(=O)NC4(C)CC4)cc(N4CC[C@H](N)C4)c3N21 [Example 75]  cellular PARG (Homo sapiens, UniProt Q86W56)  100 to 1000 nM
5  [2H]C([2H])(c1cnn(C)c1)N1C(=O)c2cc(S(=O)(=O)NC3(C)CC3)cc(Br)c2N2C1=NC[C@@H]2C#CC1CC1 [Example 95]  cellular PARG (Homo sapiens, UniProt Q86W56)  100 to 1000 nM

Q) Identify IC50 associated with the molecule Cn1cc(CN2C(=O)c3cc(S(=O)(=O)NC4(C)CC4)ccc3N3C2=NC[C@H]3COc2ccc(F)cc2)cn1 [Example 29]
A) < 100 nM

Q) Identify IC50 associated with the molecule [2H]C([2H])(c1cnn(C)c1)N1C(=O)c2cc(S(=O)(=O)NC3(C)CC3)ccc2N2C1=NC[C@H]2C#CC(C)(C)N [Example 105]
A) 100 to 1000 nM
